protocolDescription: Solubility of anti-tuberculosis compounds in PBS
Format: physicochemical
conditionNotes: aqueous buffer; dissolution media PBS, 37° C.; read-out: Solubility at 37° C.
measureName: solubility (µg/mL)

- COc1nc2ccc(Br)cc2cc1[C@@H](c1ccccc1)[C@@](O)(CCN(C)C)c1cccc2ccccc12: 129
- CO[C@H]1/C=C/O[C@@]2(C)Oc3c(C)c(O)c4c(O)c(c(/C=N/N5CCN(C6CCCC6)CC5)c(O)c4c3C2=O)NC(=O)/C(C)=C\C=C\[C@H](C)[C@H](O)[C@@H](C)[C@@H](O)[C@@H](C)[C@H](OC(C)=O)[C@@H]1C: 134
- CO[C@H]1/C=C/O[C@@]2(C)Oc3c(C)c(O)c4c(c3C2=O)C2=NC3(CCN(CC(C)C)CC3)NC2=C(NC(=O)/C(C)=C\C=C\[C@H](C)[C@H](O)[C@@H](C)[C@@H](O)[C@@H](C)[C@H](OC(C)=O)[C@@H]1C)C4=O: 101

###

protocolDescription: In vivo drug release: drug concentration in blood plasma after subcutaneous implants
Design: species or system Wistar Han rat
conditionNotes: Wistar Han, plasma, sc, 60 mg/animal; 44 days; rat, three compressed implants subcutaneous
concentration at 44 days values by entry
measureName: concentration at 44 days (nM)

• CO[C@H]1/C=C/O[C@@]2(C)Oc3c(C)c(O)c4c(c3C2=O)C2=NC3(CCN(CC(C)C)CC3)NC2=C(NC(=O)/C(C)=C\C=C\[C@H](C)[C@H](O)[C@@H](C)[C@@H](O)[C@@H](C)[C@H](OC(C)=O)[C@@H]1C)C4=O = 42.3
• COc1nc2ccc(Br)cc2cc1[C@@H](c1ccccc1)[C@@](O)(CCN(C)C)c1cccc2ccccc12 = 70.3
• CO[C@H]1/C=C/O[C@@]2(C)Oc3c(C)c(O)c4c(O)c(c(/C=N/N5CCN(C6CCCC6)CC5)c(O)c4c3C2=O)NC(=O)/C(C)=C\C=C\[C@H](C)[C@H](O)[C@@H](C)[C@@H](O)[C@@H](C)[C@H](OC(C)=O)[C@@H]1C = 1460

###

solubility values by entry
protocolDescription: Solubility of anti-tuberculosis compounds in PBS
Assay type: physicochemical
conditionNotes: aqueous buffer; in phosphate buffered saline (PBS); read-out: aqueous solubility
measureName: solubility

- CO[C@H]1/C=C/O[C@@]2(C)Oc3c(C)c(O)c4c(O)c(c(/C=N/N5CCN(C6CCCC6)CC5)c(O)c4c3C2=O)NC(=O)/C(C)=C\C=C\[C@H](C)[C@H](O)[C@@H](C)[C@@H](O)[C@@H](C)[C@H](OC(C)=O)[C@@H]1C [rifapentine]: < 200 µg/mL
- CO[C@H]1/C=C/O[C@@]2(C)Oc3c(C)c(O)c4c(c3C2=O)C2=NC3(CCN(CC(C)C)CC3)NC2=C(NC(=O)/C(C)=C\C=C\[C@H](C)[C@H](O)[C@@H](C)[C@@H](O)[C@@H](C)[C@H](OC(C)=O)[C@@H]1C)C4=O [rifabutin]: < 200 µg/mL
- COc1nc2ccc(Br)cc2cc1[C@@H](c1ccccc1)[C@@](O)(CCN(C)C)c1cccc2ccccc12 [bedaquiline]: < 200 µg/mL

###

concentration at 0.25 days values by entry
protocolDescription: In vivo drug release: drug concentration in blood plasma after subcutaneous implants
Design: species or system Wistar Han rat
conditionNotes: Wistar Han, plasma, sc, 60 mg/animal; 0.25 days; rat, three compressed implants subcutaneous
measureName: concentration at 0.25 days (nM)

- CO[C@H]1/C=C/O[C@@]2(C)Oc3c(C)c(O)c4c(O)c(c(/C=N/N5CCN(C6CCCC6)CC5)c(O)c4c3C2=O)NC(=O)/C(C)=C\C=C\[C@H](C)[C@H](O)[C@@H](C)[C@@H](O)[C@@H](C)[C@H](OC(C)=O)[C@@H]1C: 1250
- CO[C@H]1/C=C/O[C@@]2(C)Oc3c(C)c(O)c4c(c3C2=O)C2=NC3(CCN(CC(C)C)CC3)NC2=C(NC(=O)/C(C)=C\C=C\[C@H](C)[C@H](O)[C@@H](C)[C@@H](O)[C@@H](C)[C@H](OC(C)=O)[C@@H]1C)C4=O: 244

###

protocolDescription: In vivo drug release: drug concentration in blood plasma after subcutaneous implants
Set-up: species or system Wistar Han rat
conditionNotes: Wistar Han, plasma, sc, 60 mg/animal; 16 days; rat, three compressed implants subcutaneous
concentration at 16 days values by entry
measureName: concentration at 16 days

• CO[C@H]1/C=C/O[C@@]2(C)Oc3c(C)c(O)c4c(O)c(c(/C=N/N5CCN(C6CCCC6)CC5)c(O)c4c3C2=O)NC(=O)/C(C)=C\C=C\[C@H](C)[C@H](O)[C@@H](C)[C@@H](O)[C@@H](C)[C@H](OC(C)=O)[C@@H]1C = 2260 nM
• COc1nc2ccc(Br)cc2cc1[C@@H](c1ccccc1)[C@@](O)(CCN(C)C)c1cccc2ccccc12 = 63.6 nM
• CO[C@H]1/C=C/O[C@@]2(C)Oc3c(C)c(O)c4c(c3C2=O)C2=NC3(CCN(CC(C)C)CC3)NC2=C(NC(=O)/C(C)=C\C=C\[C@H](C)[C@H](O)[C@@H](C)[C@@H](O)[C@@H](C)[C@H](OC(C)=O)[C@@H]1C)C4=O = 75.9 nM

###

concentration at 1 day values by entry
protocolDescription: In vivo drug release: drug concentration in blood plasma after subcutaneous implants
Set-up: species or system Wistar Han rat
conditionNotes: Wistar Han, plasma, sc, 60 mg/animal; 1 day; rat, three compressed implants subcutaneous
measureName: concentration at 1 day (nM)

• CO[C@H]1/C=C/O[C@@]2(C)Oc3c(C)c(O)c4c(O)c(c(/C=N/N5CCN(C6CCCC6)CC5)c(O)c4c3C2=O)NC(=O)/C(C)=C\C=C\[C@H](C)[C@H](O)[C@@H](C)[C@@H](O)[C@@H](C)[C@H](OC(C)=O)[C@@H]1C = 3530
• CO[C@H]1/C=C/O[C@@]2(C)Oc3c(C)c(O)c4c(c3C2=O)C2=NC3(CCN(CC(C)C)CC3)NC2=C(NC(=O)/C(C)=C\C=C\[C@H](C)[C@H](O)[C@@H](C)[C@@H](O)[C@@H](C)[C@H](OC(C)=O)[C@@H]1C)C4=O = 209

###

protocolDescription: In vivo drug release: drug concentration in blood plasma after subcutaneous implants
Parameters: species or system Wistar Han rat
conditionNotes: Wistar Han, plasma, sc, 60 mg/animal; 30 days; rat, three compressed implants subcutaneous
concentration at 30 days values by entry
measureName: concentration at 30 days

* CO[C@H]1/C=C/O[C@@]2(C)Oc3c(C)c(O)c4c(c3C2=O)C2=NC3(CCN(CC(C)C)CC3)NC2=C(NC(=O)/C(C)=C\C=C\[C@H](C)[C@H](O)[C@@H](C)[C@@H](O)[C@@H](C)[C@H](OC(C)=O)[C@@H]1C)C4=O | 69.3 nM
* COc1nc2ccc(Br)cc2cc1[C@@H](c1ccccc1)[C@@](O)(CCN(C)C)c1cccc2ccccc12 | 51.7 nM
* CO[C@H]1/C=C/O[C@@]2(C)Oc3c(C)c(O)c4c(O)c(c(/C=N/N5CCN(C6CCCC6)CC5)c(O)c4c3C2=O)NC(=O)/C(C)=C\C=C\[C@H](C)[C@H](O)[C@@H](C)[C@@H](O)[C@@H](C)[C@H](OC(C)=O)[C@@H]1C | 1010 nM

###

concentration at 2 days values by entry
protocolDescription: In vivo drug release: drug concentration in blood plasma after subcutaneous implants
Design: species or system Wistar Han rat
conditionNotes: Wistar Han, plasma, sc, 60 mg/animal; 2 days; rat, three compressed implants subcutaneous
measureName: concentration at 2 days (nM)

* CO[C@H]1/C=C/O[C@@]2(C)Oc3c(C)c(O)c4c(c3C2=O)C2=NC3(CCN(CC(C)C)CC3)NC2=C(NC(=O)/C(C)=C\C=C\[C@H](C)[C@H](O)[C@@H](C)[C@@H](O)[C@@H](C)[C@H](OC(C)=O)[C@@H]1C)C4=O | 182
* CO[C@H]1/C=C/O[C@@]2(C)Oc3c(C)c(O)c4c(O)c(c(/C=N/N5CCN(C6CCCC6)CC5)c(O)c4c3C2=O)NC(=O)/C(C)=C\C=C\[C@H](C)[C@H](O)[C@@H](C)[C@@H](O)[C@@H](C)[C@H](OC(C)=O)[C@@H]1C | 5210

meta.source: patent US20200179273A1
